assay: isobaric coefficient of expansion; conditions: 348.15 K; 10000 kPa; Liquid; DSC with Pressure Shift
MEASURED QUANTITY: isobaric coefficient of expansion

// known answers, use as guide
CCCCCCCCCO [nonan-1-ol] | 0.000879 1/K
CCCCCCCCCCO [decan-1-ol] | 0.000863 1/K

Now for a further molecule.
Prompt: Note down isobaric coefficient of expansion recorded for CCCCCCCCO [octan-1-ol]
Completion: 0.000896 1/K

----------
test: isobaric coefficient of expansion; conditions: 298.15 K; 20000 kPa; Liquid; DSC with Pressure Shift
Provide the reported isobaric coefficient of expansion of each item.

CCCC(C)O (stereo not drawn) | 0.00089 1/K
CCCCCCCCCO | 0.000762 1/K

Prompt: Report measured isobaric coefficient of expansion; entry is CCCO
Completion: 0.000899 1/K

----------
Give isobaric coefficient of expansion for every item shown.
test: isobaric coefficient of expansion; conditions: 328.15 K; 25000 kPa; Liquid; DSC with Pressure Shift

CCO [ethanol] | 0.00102 1/K
CCCCCCCO [heptan-1-ol] | 0.000811 1/K

Below are 5 molecules. Give each one its isobaric coefficient of expansion.
1. CCCCCN [1-pentanamine]
2. CCCCCCCCCCO [decan-1-ol]
3. CCCCCCCCCO [nonan-1-ol]
4. CCCC(C)O (configuration not stated) [pentan-2-ol]
5. CCCCCO [pentan-1-ol]

Completion:
["0.00104 1/K", "0.000765 1/K", "0.000775 1/K", "0.000983 1/K", "0.000849 1/K"]

----------
Would you kindly list isobaric coefficient of expansion for each of these compounds?
assay: isobaric coefficient of expansion; conditions: 328.15 K; 30000 kPa; Liquid; DSC with Pressure Shift

For orientation, consider the following solved cases.
CCCCCN [1-pentanamine] | 0.00102 1/K
CCCCCCCCO [octan-1-ol] | 0.000767 1/K
CCCCCO [pentan-1-ol] | 0.000827 1/K
CCCCCCCCCO [nonan-1-ol] | 0.000759 1/K
CCCCCCCO [heptan-1-ol] | 0.000792 1/K

Answer for every listed entry: what is its isobaric coefficient of expansion? The entries follow.
1. CCCO [propan-1-ol]
2. CCCCCCO [hexan-1-ol]

Completion:
1. 0.000923 1/K
2. 0.000813 1/K

----------
test: isobaric coefficient of expansion; settings: 338.15 K; 45000 kPa; Liquid; DSC with Pressure Shift
MEASURED QUANTITY: isobaric coefficient of expansion

CCCCCCCCCO | 0.000722 1/K
CCCO | 0.000881 1/K
CCCCCCCCO | 0.000731 1/K

Would you mind giving isobaric coefficient of expansion for every molecule in the list below?
1. CCO
2. CCCCCCCCCCO

Completion:
0.000935 1/K
0.000713 1/K

Prompt: Give reported isobaric coefficient of expansion value for CCCCCN
Completion: 0.000951 1/K

----------
assay: isobaric coefficient of expansion; conditions: 298.15 K; 40000 kPa; Liquid; DSC with Pressure Shift
Would you mind telling me the reported isobaric coefficient of expansion of each entry?

Field: example entries. Status: answers known.
CCCO [propan-1-ol] | 0.000822 1/K
CCCCCCCCCCO [decan-1-ol] | 0.000702 1/K
CCCCCCCO [heptan-1-ol] | 0.000716 1/K
CCCCCCCCO [octan-1-ol] | 0.000714 1/K
CCCCCCO [hexan-1-ol] | 0.000734 1/K

The following compounds each have a reported value; give each one's isobaric coefficient of expansion.
1. CCCCCO [pentan-1-ol]
2. CCO [ethanol]
3. CCCCCCCCCO [nonan-1-ol]

Completion:
1. 0.000757 1/K
2. 0.000887 1/K
3. 0.000705 1/K

----------
experiment: isobaric coefficient of expansion; conditions: 308.15 K; 55000 kPa; Liquid; DSC with Pressure Shift
MEASURED QUANTITY: isobaric coefficient of expansion

The cases that follow already have their isobaric coefficient of expansion on record.
CCCCCCCCO [octan-1-ol] | 0.000678 1/K
CCCCCCCCCCO [decan-1-ol] | 0.000669 1/K
CCCCCCO [hexan-1-ol] | 0.000709 1/K
CCCCCO [pentan-1-ol] | 0.000721 1/K
CCCC(C)O (stereo unspecified) [pentan-2-ol] | 0.000793 1/K

Turning now to a further record.
Prompt: Supply measured isobaric coefficient of expansion of CCO [ethanol] in your reply.
Completion: 0.000848 1/K

----------
Would you mind telling me the reported isobaric coefficient of expansion of each entry?
test: isobaric coefficient of expansion; settings: 288.15 K; 50000 kPa; Liquid; DSC with Pressure Shift

CCCCCCCCCO [nonan-1-ol] | 0.000691 1/K
CCO [ethanol] | 0.00085 1/K
CCCCCCO [hexan-1-ol] | 0.000703 1/K

For every record below, what is its isobaric coefficient of expansion?
1. CCCCCCCCO [octan-1-ol]
2. CCC(O)CC [3-pentanol]

Completion:
["0.000681 1/K", "0.000792 1/K"]

I'm hoping you can list isobaric coefficient of expansion for every compound here, please.
1. CCCC(C)O (centres undefined) [pentan-2-ol]
2. CCCO [propan-1-ol]
3. CCCCCCCO [heptan-1-ol]
4. CCCCCO [pentan-1-ol]

Completion:
["0.000758 1/K", "0.000786 1/K", "0.000694 1/K", "0.000724 1/K"]
